Provide the reported fluorescence lifetime of each item.
- assayRemarks: solvent given as SMILES
- studyConditions: in ClCCl
// note: answer is a bare numeric in ns

Query: What fluorescence lifetime value was documented for this compound, O=C1CCCC2=C1CC1=C(CCCC1=O)N2NC(=O)c1ccc(O)cc1 ?
Reply: 5.4

Query: What fluorescence lifetime value was documented for this compound, CC1=[N+]2C(=Cc3cccn3[B-]2(F)F)C=C1 ?
Reply: 6.2

Query: What fluorescence lifetime value was documented for this compound, COc1ccc(-c2c3cc4cc(C)sc4cc3c(-c3ccc(OC)cc3)c3cc4cc(C)sc4cc23)cc1 ?
Reply: 9.7

---

- assayRemarks: solvent given as SMILES
- studyConditions: in CC(C)=O
Label YES when fluorescence lifetime >= 4 ns; otherwise NO.

Query: Could you please find out whether CC1=CC(C)=[N+]2C1=C(c1ccccc1)c1c(C)cc(C)n1[B-]2(F)F has fluorescence lifetime that meets 4 ns or exceeds it?
Reply: NO

Query: Could you please find out whether NNC(=O)NNN1C(=O)c2cc(S(=O)(=O)[O-])cc3c(N)c(S(=O)(=O)[O-])cc(c23)C1=O has fluorescence lifetime that meets 4 ns or exceeds it?
Reply: YES

Query: Could you please find out whether COc1ccc(/C=C/C2=CC(/C=C/c3ccc(OC)cc3)=[O+][B-](F)(F)O2)cc1 has fluorescence lifetime that meets 4 ns or exceeds it?
Reply: NO

Query: Could you please find out whether CC(=O)O[B-]1(OC(C)=O)OC(/C=C/c2ccc(C)cc2)=CC(/C=C/c2ccc(C)cc2)=[O+]1 has fluorescence lifetime that meets 4 ns or exceeds it?
Reply: NO

Query: Could you please find out whether O=C1c2ccc3c4ccc5c6c(ccc(c7ccc(c2c37)C(=O)N1c1ccncc1)c64)C(=O)N(c1ccncc1)C5=O has fluorescence lifetime that meets 4 ns or exceeds it?
Reply: NO

Query: Could you please find out whether Nc1ccc2c3c(cccc13)C(=O)c1ccccc1-2 has fluorescence lifetime that meets 4 ns or exceeds it?
Reply: YES

Query: Could you please find out whether c1ccc(N2c3ccc4ccccc4c3-c3c4ccccc4nc[n+]3[B-]2(c2ccccc2)c2ccccc2)cc1 has fluorescence lifetime that meets 4 ns or exceeds it?
Reply: NO

Query: Could you please find out whether COC(=O)C(Cc1ccc2oc(-c3ccc(N(C)c4ccccc4)cc3)nc2c1)NC(=O)OC(C)(C)C (stereo unspecified) has fluorescence lifetime that meets 4 ns or exceeds it?
Reply: YES

Query: Could you please find out whether CN(C)c1ccc(/C=C/C(=C(C#N)C#N)c2ccc3c4c(cccc24)CC3)cc1 has fluorescence lifetime that meets 4 ns or exceeds it?
Reply: NO

Query: Could you please find out whether c1ccc(-c2ccc(-c3ccc(-n4c5ccccc5c5ccccc54)cc3)c3nsnc23)cc1 has fluorescence lifetime that meets 4 ns or exceeds it?
Reply: YES

Query: Could you please find out whether COC(=O)C(Cc1ccc2oc(-c3ccc4c(c3)c3ccccc3n4-c3ccccc3)nc2c1)NC(=O)OC(C)(C)C (stereo unspecified) has fluorescence lifetime that meets 4 ns or exceeds it?
Reply: NO

Query: Could you please find out whether CC(=O)O[B-]1(OC(C)=O)OC(/C=C/C=C/c2ccccc2)=CC(/C=C/C=C/c2ccccc2)=[O+]1 has fluorescence lifetime that meets 4 ns or exceeds it?
Reply: NO

Query: Could you please find out whether N#CC(C#N)=C(/C=C/c1cc2c3c(c1)CCCN3CCC2)c1ccc2c3c(cccc13)CC2 has fluorescence lifetime that meets 4 ns or exceeds it?
Reply: NO

Query: Could you please find out whether CC1=C(C(C)(C)C)C(C)=[N+]2C1=C(C)c1c(C)c(C(C)(C)C)c(C)n1[B-]2(F)F has fluorescence lifetime that meets 4 ns or exceeds it?
Reply: YES

Query: Could you please find out whether F[B-]1(F)n2cccc2C=C2C=CC=[N+]21 has fluorescence lifetime that meets 4 ns or exceeds it?
Reply: YES

Query: Could you please find out whether N#CC(C#N)=C(/C=C/c1ccc(N(c2ccccc2)c2ccccc2)cc1)c1ccc2c3c(cccc13)CC2 has fluorescence lifetime that meets 4 ns or exceeds it?
Reply: NO

---

- assayRemarks: solvent given as SMILES
- studyConditions: in CCO
endpointName: fluorescence lifetime (ns)
// note: answer is a bare numeric in ns

Query: What fluorescence lifetime value was documented for this compound, Cc1ccc(C2=C3C=C(I)C=[N+]3[B-](F)(F)n3cc(I)cc32)cc1 ?
Reply: 0.065

Query: What fluorescence lifetime value was documented for this compound, Cc1cc(-c2nnc(-c3ccccc3)o2)ccc1-n1c2ccccc2c2ccccc21 ?
Reply: 1.82

Query: What fluorescence lifetime value was documented for this compound, CN(C)c1ccc2cc3ccc(=[N+](C)C)cc-3oc2c1 ?
Reply: 2.26

Query: What fluorescence lifetime value was documented for this compound, CCC1=C(C)C2=C(C)c3cc(I)c(I)n3[B-](F)(F)[N+]2=C1C ?
Reply: 0.939

Query: What fluorescence lifetime value was documented for this compound, CN(C)c1ccc(/C=C/C=C2\CC/C(=C\c3ccc(N(C)C)cc3)C2=O)cc1 ?
Reply: 0.82

Query: What fluorescence lifetime value was documented for this compound, CCCCCCCCCCCCN1C(=O)c2cccc3c(N(Cc4ccccn4)Cc4ccccn4)c4ccccc4c(c23)C1=O ?
Reply: 5.52

Query: What fluorescence lifetime value was documented for this compound, N#Cc1ccc(/C=C2\OC(=O)c3cc(N)ccc32)cc1 ?
Reply: 2.2

Query: What fluorescence lifetime value was documented for this compound, Cc1cc(=O)oc2c1cc(Br)c1occ(C)c12 ?
Reply: 0.08

Query: What fluorescence lifetime value was documented for this compound, NS(=O)(=O)c1ccc(N2N=C(c3ccc(O)cc3)CC2c2ccc(F)cc2)cc1 (stereo not drawn) ?
Reply: 1.78

Query: What fluorescence lifetime value was documented for this compound, C[n+]1c2c(c(-c3ccccc3)c3c1CCCC3)CCCC2 ?
Reply: 5.39

Query: What fluorescence lifetime value was documented for this compound, CN(C)c1ccc(/C=C/C=C2\CC/C(=C\C=C\c3ccc(N(C)C)cc3)C2=O)cc1 ?
Reply: 0.24

Query: What fluorescence lifetime value was documented for this compound, Cc1ccc(C2=C3C=CC=[N+]3[B-](F)(F)n3cccc32)cc1 ?
Reply: 0.253

Query: What fluorescence lifetime value was documented for this compound, CNC1=C2C=CC=[N+]2[B-](F)(F)n2cccc21 ?
Reply: 0.774

---

- assayRemarks: solvent given as SMILES
- studyConditions: in Cc1ccccc1
fluorescence lifetime less than 3 ns is Satisfied; fluorescence lifetime greater than or equal to 3 ns is Not satisfied.

Query: In plain terms, does O=Cc1ccc(C2=C3C=c4c(oc5ccccc45)=[N+]3[B-](F)(F)n3c2cc2c4ccccc4oc23)cc1 come in under 3 ns for fluorescence lifetime?
Reply: Satisfied

Query: In plain terms, does C(=C\N1CCCC1)/c1nc2ccccc2nc1-c1ccccc1 come in under 3 ns for fluorescence lifetime?
Reply: Not satisfied

Query: In plain terms, does FC(F)(F)c1ccc(/C=C/c2ccc(-c3nnc(-c4ccc(-c5cc6ccccc6s5)cc4)o3)cc2)cc1 come in under 3 ns for fluorescence lifetime?
Reply: Satisfied

Query: In plain terms, does CN(CC(O)c1cccc(O)c1)c1ccc([N+](=O)[O-])c(C2CC(c3cccc4ccccc34)=NN2c2ccccc2)c1 (centres undefined) come in under 3 ns for fluorescence lifetime?
Reply: Satisfied

Query: In plain terms, does N#CC(C#N)=C(/C=C/c1cc2c3c(c1)CCCN3CCC2)c1ccc2c3c(cccc13)CC2 come in under 3 ns for fluorescence lifetime?
Reply: Not satisfied

Query: In plain terms, does CN(C)c1ccc(C#Cc2cc3ccc4cc(C#Cc5ccc(N(C)C)cc5)cc5ccc(c2)c3c45)cc1 come in under 3 ns for fluorescence lifetime?
Reply: Not satisfied

Query: In plain terms, does CN(C)c1ccc(C2=Nc3sc4c(F)c(F)c(F)c(F)c4[n+]3[B-](F)(F)O2)cc1 come in under 3 ns for fluorescence lifetime?
Reply: Satisfied

Query: In plain terms, does Cc1cc(C)c2c(c1)c1cc(C)cc(C)c1n2-c1ccc2c(c1)Sc1cc3c(cc1B2c1c(C(C)C)cc(C(C)C)cc1C(C)C)B(c1c(C(C)C)cc(C(C)C)cc1C(C)C)c1ccccc1S3 come in under 3 ns for fluorescence lifetime?
Reply: Satisfied

Query: In plain terms, does Cc1ccccc1-c1cc(-c2ccc(N3c4ccccc4C(C)(C)c4ccccc43)cc2)nc(-c2ccccc2)n1 come in under 3 ns for fluorescence lifetime?
Reply: Satisfied

---

- assayRemarks: solvent given as SMILES
- studyConditions: in CO
Classify on fluorescence lifetime using I (below 1 ns), II (1 ns to below 4 ns), III (4 ns or more)

Query: Categorize the following entry: CN(C)c1ccc(/C=C/C=C2\CC/C(=C\C=C\c3ccc(N(C)C)cc3)C2=O)cc1
Reply: I

Query: Categorize the following entry: COc1ccc(-c2nc3c(c4c2-c2ccccc2CC4)-c2ccccc2CC3)cc1
Reply: I

Query: Categorize the following entry: Cc1ccc(C2=C3C=CC(C#Cc4ccccc4)=[N+]3[B-](F)(F)n3c(Cl)ccc32)cc1
Reply: III

Query: Categorize the following entry: c1ccc(-c2nc3c(c4c2-c2ccccc2CC4)-c2ccccc2CC3)cc1
Reply: I

Query: Categorize the following entry: N#Cc1cccc2cc[nH]c12
Reply: III

Query: Categorize the following entry: Cc1cc(C)c(C2=[N+]3C(=Cc4c(C)cc(C)n4[B-]3(F)F)c3ccccc32)[nH]1
Reply: III

Query: Categorize the following entry: CN(C)c1ccc(-c2nc3c(c4c2-c2ccc(C#N)cc2CC4)-c2ccc(C#N)cc2CC3)cc1
Reply: II

Query: Categorize the following entry: N#Cc1ccc2[nH]ccc2c1
Reply: II

Query: Categorize the following entry: CCN1\C(=C/C=C/C=C/C2=[N+](CC)c3ccc4ccccc4c3C2(C)C)C(C)(C)c2c1ccc1ccccc21
Reply: I

Query: Categorize the following entry: CCC1(CC)c2cc(-c3ccc(C(C)(C)C)cc3)ccc2-c2ccc(-c3ccc4c(c3)C(CC)(CC)c3cc(-c5ccc6c(c5)C(CC)(CC)c5cc(-c7ccc(C(C)(C)C)cc7)ccc5-6)ccc3-4)cc21
Reply: I

Query: Categorize the following entry: O=C1CCCc2c1[nH]c1cc3c(cc21)OCO3
Reply: II

Query: Categorize the following entry: Cc1ccc(C2=[N+]3C(=Cc4c(C)cc(C)n4[B-]3(F)F)c3ccccc32)[nH]1
Reply: III

Query: Categorize the following entry: C=CCOc1ccc(-c2nc3cc(C(NC(=O)OC(C)(C)C)C(=O)OC)ccc3o2)cc1 (stereo unspecified)
Reply: II

Query: Categorize the following entry: COc1ccc2c3c(cccc13)C(=O)c1ccccc1-2
Reply: III

Query: Categorize the following entry: Cc1ccc(-c2cc(-c3ccc(N(C)C)cc3)c3c(N)nc(N4CCCC4)c(C#N)c3n2)cc1
Reply: II
